molecular target: endogenous Tie2 receptor (Homo sapiens); construct: the endogenous Tie2 receptor; assay: Tie2-pTyr-ELISA: autophosphorylation of endogenous Tie2 receptor in HUVEC; conditions: autophosphorylation elevated by sodium orthovanadate (4 mM), Tie2/phosphotyrosine sandwich ELISA, from 2-7 independent measurements
Sequence (Q02763 23-1124): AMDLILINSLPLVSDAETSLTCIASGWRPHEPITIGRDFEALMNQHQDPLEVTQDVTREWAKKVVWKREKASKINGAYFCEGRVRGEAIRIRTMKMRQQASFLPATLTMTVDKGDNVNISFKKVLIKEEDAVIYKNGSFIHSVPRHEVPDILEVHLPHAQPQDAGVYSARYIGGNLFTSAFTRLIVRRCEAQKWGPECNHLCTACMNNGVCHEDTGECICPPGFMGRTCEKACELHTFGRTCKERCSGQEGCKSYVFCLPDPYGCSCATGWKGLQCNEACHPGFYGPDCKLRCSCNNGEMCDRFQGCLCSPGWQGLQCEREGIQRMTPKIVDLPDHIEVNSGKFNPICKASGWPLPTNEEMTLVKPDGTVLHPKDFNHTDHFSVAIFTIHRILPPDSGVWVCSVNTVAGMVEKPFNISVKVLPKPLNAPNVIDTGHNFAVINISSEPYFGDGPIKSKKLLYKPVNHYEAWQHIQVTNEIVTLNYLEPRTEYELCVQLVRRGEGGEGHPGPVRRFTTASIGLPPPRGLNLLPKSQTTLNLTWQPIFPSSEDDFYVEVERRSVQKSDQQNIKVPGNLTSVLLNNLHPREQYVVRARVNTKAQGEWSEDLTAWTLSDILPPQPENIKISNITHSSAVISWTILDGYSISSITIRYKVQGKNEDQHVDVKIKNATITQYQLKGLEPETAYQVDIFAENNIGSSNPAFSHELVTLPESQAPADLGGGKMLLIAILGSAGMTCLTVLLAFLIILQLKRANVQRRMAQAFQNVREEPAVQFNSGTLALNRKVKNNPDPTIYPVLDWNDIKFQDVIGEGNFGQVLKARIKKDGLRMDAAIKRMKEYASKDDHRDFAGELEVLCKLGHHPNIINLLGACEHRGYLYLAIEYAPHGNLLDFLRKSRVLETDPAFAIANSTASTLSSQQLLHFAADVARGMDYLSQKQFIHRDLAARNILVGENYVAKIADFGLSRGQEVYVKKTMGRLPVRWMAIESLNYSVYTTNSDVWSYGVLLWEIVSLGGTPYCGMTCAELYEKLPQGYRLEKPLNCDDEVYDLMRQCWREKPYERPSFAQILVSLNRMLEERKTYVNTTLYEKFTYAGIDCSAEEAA
Kindly supply the reported IC50 values for the records listed here.
Answer in nM, number only, no unit symbol.

Which IC50 value belongs to Cc1ccc(NC(=O)c2cc(N3CCN(C)CC3)cc(S(F)(F)(F)(F)F)c2)cc1-n1ccn2nc(-c3cn[nH]c3)cc12 ?
7.6

Which IC50 value belongs to Cc1ccc(NC(=O)c2cc(-n3ccnc3C)cc(S(F)(F)(F)(F)F)c2)cc1-n1ccn2nc(-c3cccnc3)cc12 ?
3.2

Which IC50 value belongs to COCc1cc(C(=O)Nc2cc(-n3ccn4nc(-c5cccnc5)cc34)c(C)cc2C)cc(S(F)(F)(F)(F)F)c1 ?
1.4

Which IC50 value belongs to Cc1ccc(NC(=O)c2cc(C#N)cc(S(F)(F)(F)(F)F)c2)cc1-n1ccn2nc(-c3cnccn3)cc12 ?
8.9

###

target: intracellular domain of human Tie2 (GST fusion protein) (Homo sapiens, UniProt Q02763); construct: intracellular domain of human Tie2 (amino acids 776-1124); test: Tie2 kinase assay (Tie2-TR-FRET); conditions: ATP concentration 1 mM, in some cases means of several independent determinations
Sequence (Q02763 776-1124): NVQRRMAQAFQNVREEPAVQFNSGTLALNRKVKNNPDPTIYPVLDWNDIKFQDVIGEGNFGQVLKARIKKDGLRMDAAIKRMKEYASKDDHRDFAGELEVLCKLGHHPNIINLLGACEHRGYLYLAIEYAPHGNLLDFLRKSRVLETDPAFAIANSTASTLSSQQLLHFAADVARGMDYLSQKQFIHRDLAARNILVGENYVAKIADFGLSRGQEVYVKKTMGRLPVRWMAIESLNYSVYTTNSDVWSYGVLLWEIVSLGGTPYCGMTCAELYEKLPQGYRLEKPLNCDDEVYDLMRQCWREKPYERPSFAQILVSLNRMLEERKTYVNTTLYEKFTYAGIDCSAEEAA
Observed Property: pIC50
# pIC50: negative log10 of molar concentration; output just the value

Which pIC50 value belongs to Cc1ccc(NC(=O)c2cc(C(N)=O)cc(S(F)(F)(F)(F)F)c2)cc1-n1ccn2nc(-c3cccnc3)cc12 ?
8.70

Which pIC50 value belongs to CCCOc1cccc(C(=O)Nc2ccc(C)c(-n3ccn4nc(-c5cccnc5)cc34)c2)c1 ?
6.59

Which pIC50 value belongs to Cc1ccc(NC(=O)c2cc(C#N)cc(C3(O)CCC3)c2)cc1-n1ccn2nc(-c3cccnc3)cc12 ?
7.54

Which pIC50 value belongs to Cc1cc(C)c(-n2ccn3nc(-c4cccnc4)cc23)cc1NC(=O)c1cc(Br)cc(C(C)(C)C)c1 ?
9.22

Which pIC50 value belongs to Cc1ccc(NC(=O)c2cc(C(C)(C)C)ccn2)cc1-n1ccn2nc(-c3cccnc3)cc12 ?
6.55

Which pIC50 value belongs to Cc1cc(C)c(-n2ccn3nc(-c4cccnn4)cc23)cc1NC(=O)c1cc(Br)cc(S(F)(F)(F)(F)F)c1 ?
8.92

Which pIC50 value belongs to Cc1cc(C)c(-n2ccn3nc(-c4cccnc4)cc23)cc1NC(=O)c1cc(C(=O)O)cc(S(F)(F)(F)(F)F)c1 ?
8.30

###

Kindly supply the reported pIC50 values for the records listed here.
biological target: intracellular domain of human Tie2 (GST fusion protein) (Homo sapiens, UniProt Q02763); construct: intracellular domain of human Tie2 (amino acids 776-1124); test: Tie2 kinase assay (Tie2-TR-FRET); conditions: ATP concentration 1 mM, in some cases means of several independent determinations
# pIC50: negative log10 of molar concentration; output just the value

Which pIC50 value belongs to Cc1ccc(NC(=O)c2cc(N3CCN(C)CC3)cc(S(F)(F)(F)(F)F)c2)cc1-n1ccn2nc(-c3cccnc3)cc12 ?
9.15

Which pIC50 value belongs to Cc1cc(C)c(-n2ccn3nc(-c4cncnc4)cc23)cc1NC(=O)c1cc(Br)cc(S(F)(F)(F)(F)F)c1 ?
8.77

Which pIC50 value belongs to Cc1cc(C)c(-n2ccn3nc(-c4cn[nH]c4)cc23)cc1NC(=O)c1cc(C#N)cc(S(F)(F)(F)(F)F)c1 ?
8.96

Which pIC50 value belongs to Cc1ccc(NC(=O)c2ccnc(N3CCOCC3)c2)cc1-n1ccn2nc(-c3cccnc3)cc12 ?
6.24

Which pIC50 value belongs to Cc1ccc(NC(=O)c2cc(Cl)nc(C(C)(C)C)c2)cc1-n1ccn2nc(-c3cccnc3)cc12 ?
7.24

Which pIC50 value belongs to Cc1ccc(NC(=O)c2cc(OC3CCNC3)cc(S(F)(F)(F)(F)F)c2)cc1-n1ccn2nc(-c3cccnc3)cc12 (centres unmarked) ?
8.72

Which pIC50 value belongs to COc1ccc(NC(=O)c2cc(C#N)cc(S(F)(F)(F)(F)F)c2)cc1-n1ccn2nc(-c3cccnc3)cc12 ?
6.62

Which pIC50 value belongs to Cc1ccc(NC(=O)c2ccnc(N3CCCCC3)c2)cc1-n1ccn2nc(-c3cccnc3)cc12 ?
7.15

Which pIC50 value belongs to Cc1cc(Cl)c(-n2ccn3nc(-c4cccnc4)cc23)cc1NC(=O)c1cccc(S(F)(F)(F)(F)F)c1 ?
9.30

Which pIC50 value belongs to Cc1cc(C)c(-n2ccn3nc(-c4cccnc4)cc23)cc1NC(=O)c1cccc(OC(C)(C)C)c1 ?
7.26

Which pIC50 value belongs to Cc1cc(C)c(-n2ccn3nc(-c4cncnc4)cc23)cc1NC(=O)c1cc(C#N)cc(S(F)(F)(F)(F)F)c1 ?
9.52

Which pIC50 value belongs to Cc1ccc(S(F)(F)(F)(F)F)cc1C(=O)Nc1ccc(C)c(-n2ccn3nc(-c4cccnc4)cc23)c1 ?
6.67

Which pIC50 value belongs to COc1cc(C(=O)Nc2ccc(C)c(-n3ccn4nc(-c5cccnc5)cc34)c2)cc(S(F)(F)(F)(F)F)c1 ?
8.68

Which pIC50 value belongs to Cc1ccc(NC(=O)c2cccc(C(F)(F)F)c2)cc1-n1ccn2nc(-c3cn[nH]c3)cc12 ?
6.42
